Biological target: BLK (human) (UniProt P51451)
Sequence (P51451 whole entry, looked up): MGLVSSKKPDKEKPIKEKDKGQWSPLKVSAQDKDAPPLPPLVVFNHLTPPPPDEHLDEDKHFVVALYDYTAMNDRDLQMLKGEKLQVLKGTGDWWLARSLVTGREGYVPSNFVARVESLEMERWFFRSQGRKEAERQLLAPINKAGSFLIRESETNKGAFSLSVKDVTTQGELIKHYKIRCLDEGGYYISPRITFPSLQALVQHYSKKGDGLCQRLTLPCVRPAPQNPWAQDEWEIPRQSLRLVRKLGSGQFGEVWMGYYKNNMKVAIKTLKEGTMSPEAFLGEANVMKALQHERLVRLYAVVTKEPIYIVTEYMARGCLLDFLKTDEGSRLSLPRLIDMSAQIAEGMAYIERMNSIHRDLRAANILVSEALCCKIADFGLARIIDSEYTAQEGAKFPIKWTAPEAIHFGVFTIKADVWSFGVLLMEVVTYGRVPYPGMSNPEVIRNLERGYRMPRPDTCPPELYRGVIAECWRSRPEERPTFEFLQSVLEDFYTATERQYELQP
Experiment: radiometric filter-binding kinase assay, Kinase HotSpot
Conditions: compound 0.5 µM; ATP 10 µM
Here, each record is paired with measured residual activity data.
resultType: residual activity (%)

>>> df
                                   compound  assayresult
0   CC(C)n1cnc2c(Nc3cccc(Cl)c3)nc(NCCO)nc21         91.2
1  CSc1nc(-c2ccc(F)cc2)c(-c2ccnc(NC(C)c3ccccc3)c2)[nH]1 (stereo unspecified)          110
2  CS(=O)c1ccc(-c2nc(-c3ccc(F)cc3)c(-c3ccncc3)[nH]2)cc1 (stereo unspecified)          102
3  CC(C)(C)c1nc2c3ccc(F)cc3c3c(=O)[nH]ccc3c2[nH]1         93.5
4      COc1ccc(-c2cnc3c(-c4ccsc4)cnn3c2)cc1         83.5
5  O=c1cc(-c2cccc3c2Sc2ccccc2S3)oc(N2CCOCC2)c1         96.2

These data points were gathered from the kinase profiling compilation of Christmann-Franck et al. (2016).
